Data provenance is PubChem BioAssay AID1159580.

Experiment: chemical genetic growth profiling, strain panel (AID 1159580);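 note: tested at 20 µM; growth read once vehicle control cultures reached saturation at 30 °C; 1 = growth at the plate median or of vehicle wells; lower values mean less growth of the strain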
Settings: S. cerevisiae deletion strains, growth OD, locus YER167W, strain BCK2, active compounds read low
About 2,000 (36%) of roughly 5,500 compounds were called active. Not shown: some 18% with an inconclusive outcome. The list shows a part of the results. Where a SMILES comes first, the peptide text is derived from it. Side-chain parts run from the residue outwards. [ ]: non-standard residue; d: D form. The star is where a group is joined. X1 = CCC(C)C(N)C1=NC(C(=O)*)CS1; Orn = NCCC[CH](N)C(=O)O
Entries and their normalized growth values follow.
metric_name: normalized growth

{"compound": "O=C(O)[C@H](O)[C@@](O)(Cc1ccc(O)cc1)C(=O)O", "result": "1.02 (inactive)"}
{"compound": "CC(=O)NO", "result": "1.02 (inactive)"}
{"compound": "COc1cc2cc3c4cc(OC)c(OC)cc4cc[n+]3c(C)c2cc1OC", "result": "1 (inactive)"}
{"compound": "CCc1cccc2c3c([nH]c12)C(CC)(CC(=O)O)OCC3 (centres undefined)", "result": "1.01 (inactive)"}
{"compound": "CC1=CC2C(C(C)C)CCC(C)(O)C2CC1 (centres undefined)", "result": "0.977 (inactive)"}
{"compound": "O=C(CCBr)N1CCN(C(=O)CCBr)CC1", "result": "1.01 (inactive)"}
{"compound": "OC(c1cc(C(F)(F)F)nc2c(C(F)(F)F)cccc12)C1CCCCN1 (centres undefined)", "result": "0.971 (inactive)"}
{"compound": "CC(C)CC1NC(=O)C(CCCN)NC(=O)C(C(C)C)NC(=O)C2CCCN2C(=O)C(Cc2ccccc2)NC(=O)C(CC(C)C)NC(=O)C(CCCN)NC(=O)C(C(C)C)NC(=O)C2CCCN2C(=O)C(Cc2ccccc2)NC1=O (centres undefined) (cyclo(FPV[Orn]LFPV[Orn]L); configuration not given here)", "result": "1.02 (inactive)"}
{"compound": "CCC(C)C(N)C1=NC(C(=O)NC(CC(C)C)C(=O)NC(CCC(=O)O)C(=O)NC(C(=O)NCCCCC2NC(=O)C(CC(N)=O)NC(=O)C(CC(=O)O)NC(=O)C(Cc3cnc[nH]3)NC(=O)C(Cc3ccccc3)NC(=O)C(C(C)CC)NC(=O)C(CCCN)NC2=O)C(C)CC)CS1 (stereo not drawn) (cyclo(DNK([Ile-Glu-Leu-X1])[Orn]IFH); configuration not given here)", "result": "1.01 (inactive)"}
{"compound": "COc1cc2c(cc1OC)-c1c(oc3c4c(ccc3c1=O)OC(C(C)C)C4)CO2 (centres undefined)", "result": "1.01 (inactive)"}
{"compound": "CC[C@H]1CN2CCc3cc(OC)c(OC)cc3C2C[C@@H]1CC1NCCc2cc(OC)c(OC)cc21 (some centres undefined)", "result": "1.01 (inactive)"}
{"compound": "NC(=O)NO", "result": "1 (inactive)"}
{"compound": "CCNc1nc(Cl)nc(NCC)n1", "result": "1 (inactive)"}
{"compound": "COc1cc2c(cc1OC)[C@@H]1C(=O)c3ccc4c(c3O[C@@H]1CO2)CC(C(C)C)O4 (some centres undefined)", "result": "1 (inactive)"}
